Where these numbers come from: patent US20260102359A1

Structures can show the parent of a compound that is named as a salt.
# collection of Compound Myofibroblast Cytotoxicity Activity values tested on hDMFa myofibroblast cells

Worked cases, Compound Myofibroblast Cytotoxicity Activity given:
COMPOUND	RESULT
Clc1ccc(C(c2ccccc2Cl)C(Cl)Cl)cc1 (centres unmarked)	+++
C[C@H]1O[C@H](OC2[C@@H](O)[C@@H](O)C(O)[C@H](O)[C@H]2O)[C@@H](N)C[C@@H]1N=C(N)C(=O)O.Cl (some centres unmarked) [Cmpd 548, Kasugamycin (hydrochloride)]	+++
COCCc1ccc(OCC(O)CNC(C)C)cc1 (centres unmarked) [Cmpd 665, Metoprolol Tartrate]	++
O=C(O[C@@H]1C[C@@H]2C[C@H]3C[C@H](C1)N2CC3=O)c1c[nH]c2ccccc12	++
COc1ccc2cc3[n+](cc2c1OC)CCc1cc2c(cc1-3)OCO2 [Cmpd 173, Berberine Sulfate]	++

Pending compound:
Req: # get_value(readout='Compound Myofibroblast Cytotoxicity Activity', item= O=C(O)c1cc(O)cc(O)c1 [Cmpd 50, 3-5-Dihydroxybenzoic Acid] )
Resp: ++

====

Structures can show the parent of a compound that is named as a salt. Where a SMILES comes first, the peptide text is derived from it.
Compound Myofibroblast Cytotoxicity Activity tested on hDMFa myofibroblast cells: recorded values

Use these answered entries as a reference point.
COMPOUND	ASSAYED TARGET	RESULT
Cc1c(C(=O)Nc2ccc(N3C[C@@H](C)O[C@@H](C)C3)nc2)cccc1-c1ccc(OC(F)(F)F)cc1.O=P(O)(O)O.O=P(O)(O)O [Cmpd 572, LDE225 Diphosphate]	hDMFa myofibroblast cells	++
Cc1cc(C2CCCCC2)n(O)c(=O)c1.NCCO	hDMFa myofibroblast cells	+++
C1=N/C2=N/c3ccc(OCCN4CCCC4)c(c3)COC/C=C/COCc3cccc(c3)C(=C1)N2 [Cmpd 751, Pacritinib (SB1518)]	hDMFa myofibroblast cells	+++
CC(C)(CO)[C@@H](O)C(=O)NCCC(=O)[O-].[Na+] [Cmpd 391, D-Pantothenate sodium]	hDMFa myofibroblast cells	++
CC(NCCC(c1ccccc1)c1ccccc1)c1ccccc1 (stereo not shown) [Cmpd 450, Fendiline (hydrochloride)]	hDMFa myofibroblast cells	+++

Req: Entry Cc1[nH]cnc1CN1CCc2c(c3ccccc3n2C)C1=O.Cl [Cmpd 101, Alosetron Hydrochloride] , system hDMFa myofibroblast cells: what Compound Myofibroblast Cytotoxicity Activity was measured?
Resp: ++++

Req: Record lookup: for hDMFa myofibroblast cells, what Compound Myofibroblast Cytotoxicity Activity belongs to CCCOc1ccc2c(c1)CC[C@@H]1[C@@H]2CC[C@]2(C)[C@@H](OC)CC[C@@H]12 ?
Resp: ++

Req: Recorded Compound Myofibroblast Cytotoxicity Activity for CN(C)c1ccc2nc3ccc(=[N+](C)C)cc-3sc2c1 with hDMFa myofibroblast cells, please?
Resp: +++++

Req: Hi! What's the reported Compound Myofibroblast Cytotoxicity Activity for OC1OC[C@H](O)[C@H](O)[C@H]1O (mixture of isomers) on hDMFa myofibroblast cells?
Resp: ++++

Req: So what Compound Myofibroblast Cytotoxicity Activity did NCc1ccc(C(=O)O)cc1 get with hDMFa myofibroblast cells?
Resp: ++

Req: What is its Compound Myofibroblast Cytotoxicity Activity for hDMFa myofibroblast cells? Entry: N[C@@H](Cc1c[nH]cn1)C(=O)O
Resp: +

Req: Reported Compound Myofibroblast Cytotoxicity Activity for hDMFa myofibroblast cells, given COc1cccc(OC)c1C(=O)N[C@@H]1C(=O)N2[C@@H]1SC(C)(C)[C@@H]2C(=O)O [Cmpd 656, Methicillin (sodium salt)] ?
Resp: ++

Req: What value of Compound Myofibroblast Cytotoxicity Activity on hDMFa myofibroblast cells does Cc1cc(O)c2c(c1)C(=O)c1cc(O)cc(O)c1C2=O have?
Resp: ++

Req: Enter reported Compound Myofibroblast Cytotoxicity Activity observed with hDMFa myofibroblast cells for O=C(O)c1ccc(C(=O)O)cc1
Resp: ++

Req: Item: NCC(=O)NCC(=O)O [Cmpd 489, Glycylglycine] (H-Gly-Gly-OH) Test system: hDMFa myofibroblast cells Read-out: Compound Myofibroblast Cytotoxicity Activity Value: ?
Resp: ++

Req: Provide the documented Compound Myofibroblast Cytotoxicity Activity with hDMFa myofibroblast cells as the system for O=C[C@H](O)[C@@H](O)[C@H](O[C@@H]1O[C@H](CO)[C@@H](O)[C@H](O)[C@H]1O)[C@H](O)CO
Resp: +++
